Measurement record for Geranylgeranyl pyrophosphate synthase (Homo sapiens, UniProt O95749, Y246D); quantity recorded: IC50.
Answer in µM, number only, no unit symbol.

Value of IC50 reported for the molecule `O=C(Nc1cccc(-c2nc(NC(P(=O)(O)O)P(=O)(O)O)c3ccsc3n2)c1)c1ccccc1` is 0.039

Value of IC50 reported for the molecule `O=C(Nc1ccccc1)c1cccc(-c2nc(NC(P(=O)(O)O)P(=O)(O)O)c3ccsc3n2)c1` is 0.05

Value of IC50 reported for the molecule `COc1ccc(C(=O)Nc2cccc(-c3nc(NC(P(=O)(O)O)P(=O)(O)O)c4ccsc4n3)c2)cc1` is 0.092
